Target: Proteinase-activated receptor 1 (Homo sapiens)
Sequence (P25116 whole entry): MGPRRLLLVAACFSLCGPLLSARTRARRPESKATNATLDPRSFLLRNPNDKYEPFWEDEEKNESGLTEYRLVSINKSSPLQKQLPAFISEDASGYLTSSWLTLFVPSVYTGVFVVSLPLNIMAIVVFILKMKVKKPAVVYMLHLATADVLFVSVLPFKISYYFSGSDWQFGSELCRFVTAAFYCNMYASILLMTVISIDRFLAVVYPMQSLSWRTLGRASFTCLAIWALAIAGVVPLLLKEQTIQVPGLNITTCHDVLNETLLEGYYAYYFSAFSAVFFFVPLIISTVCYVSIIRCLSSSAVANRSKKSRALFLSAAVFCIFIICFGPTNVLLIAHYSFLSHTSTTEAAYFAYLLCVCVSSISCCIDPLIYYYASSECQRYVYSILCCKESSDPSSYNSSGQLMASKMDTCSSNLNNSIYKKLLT
Observable: IC50 (µM)

a: CC(=O)N(c1ccsc1)[C@@H](Cc1ccc(F)cc1)C(=O)N[C@@H](Cc1ccc(NC(=N)N)cc1)C(=O)N[C@@H](CC(C)C)C(=O)N[C@@H](CCCN=C(N)N)C(N)=O
b: CC(=O)N(C(=O)c1ccc(-c2ccccc2)cc1)[C@@H](Cc1ccc(F)cc1)C(=O)N[C@@H](Cc1ccc(NC(=N)N)cc1)C(=O)N[C@@H](CC(C)C)C(=O)N[C@@H](CCCN=C(N)N)C(N)=O
c: C/C=C/C=C/CC(=O)N(C(C)=O)[C@@H](Cc1ccc(F)cc1)C(=O)N[C@@H](Cc1ccc(NC(=N)N)cc1)C(=O)N[C@@H](CC(C)C)C(=O)N[C@@H](CCCN=C(N)N)C(N)=O
Exam item: Arrange the 3 compounds from largest to smallest IC50. Note for the reader: the ranking is given by listing the labels in the order requested.
Marked response: a, b, c
